protein stability index: recorded values
B1: PBXIP1 (parent)
chain: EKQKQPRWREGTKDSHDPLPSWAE

- Variants of: B1
- Procedure summary: protein stability index of a GFP-peptide fusion (GPS, HEK-293T) (PSI 1-6); higher = more stable;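 further: lentivirally expressed fusions sorted by FACS into six bins by GFP to DsRed ratio, PSI derived from sequencing read proportions per bin multiplied by bin number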
- Particulars: c terminus: a fixed tail appended

>  <Mutation name>
R7G

>  <protein stability index>
2.14

$$$$
>  <Mutation name>
R7I

>  <protein stability index>
1.96

$$$$
>  <Mutation name>
D17L

>  <protein stability index>
1.58

$$$$
>  <Mutation name>
K2C

>  <protein stability index>
2.96

$$$$
>  <Mutation name>
S15P

>  <protein stability index>
1.26

$$$$
>  <Mutation name>
K2G

>  <protein stability index>
2.97

$$$$
>  <Mutation name>
E24D

>  <protein stability index>
1.9

$$$$
>  <Mutation name>
E1R

>  <protein stability index>
2.19

$$$$
>  <Mutation name>
Q5A

>  <protein stability index>
3.71

$$$$
>  <Mutation name>
R9Q

>  <protein stability index>
1.34

$$$$
>  <Mutation name>
T12F

>  <protein stability index>
1.33

$$$$
